assay-protocol: NF-kB promoter reporter activators, neuronal cells, dose response, cell-based, SH-SY5Y, luciferase (AID 1241)
condition-description: series mostly up to 30 µM
Hit rate of the full screen: of about 1,200 compounds, about 840 (70%) were called active. The set was probably picked from earlier hits. A selection follows. Measured potencies and affinities stand elsewhere.

{"columns": ["compound", "fold induction over control"],
 "data": [
  ["Nc1ncn(CC(=O)c2ccccc2)n1", "inactive"],
  ["O=C(/C=C/Sc1ccccc1)c1ccc(Cl)cc1", "inactive"],
  ["CC(C)Oc1ccc2c(=O)c(-c3ccccc3)coc2c1", "inactive"],
  ["Cc1cc(/C=N/NC(N)=S)c(C)n1-c1ccc(Cl)c(Cl)c1", "inactive"],
  ["CC(=Nc1cccc(C)c1)c1sc2ccccc2c1O", "inactive"],
  ["Cc1ccc(/C=N/N=C/c2ccc(C)s2)s1", "inactive"],
  ["O=c1cc(-c2ccc3c(c2)OCCO3)oc2ccc(Cl)cc12", "10.2 [at 3.75 µM] (inactive)"],
  ["COc1ccc(C(=S)Nc2ccc(N(C)C)cc2)cc1", "inactive"],
  ["Brc1ccc(-c2nc3ccccc3s2)s1", "inactive"],
  ["Cc1ccc(/C=C/C(=O)Nc2ccccc2C(N)=O)cc1", "inactive"],
  ["CC(C)c1cc(C(=O)Nc2cc(Cl)ccc2O)no1", "inactive"],
  ["CC(/C=N/NC(=O)c1cccs1)=C\\c1ccco1", "inactive"],
  ["Cc1ccc(CN2CN(S(=O)(=O)c3cccs3)c3nc4ccccc4nc32)cc1", "inactive"],
  ["O=C(CCc1nnc(CCCc2ccccc2)o1)NC(C1CC1)C1CC1", "inactive"],
  ["Cc1ccc(C(=O)Oc2oc(-c3ccco3)nc2C=Nc2ccc(Cl)cc2)cc1", "inactive"],
  ["COc1cc(NC(=O)CSc2nc3ccccc3cc2C)c(C(=O)O)cc1OC", "inactive"],
  ["COc1ccc(C(=O)c2oc3ccc(OC)cc3c2N)cc1", "inactive"],
  ["C/C(=N\\NC(=O)c1ccoc1C)c1cccnc1", "inactive"],
  ["CN1CCN(CC(=O)N2c3ccccc3C(C)(c3ccccc3)CC2(C)C)CC1 (stereo not given)", "inactive"],
  ["CCCNC(=O)c1cc(-c2ccc(OC)cc2)on1", "inactive"],
  ["CC1=C/C(=N\\OS(=O)(=O)c2ccccc2)C(C)=CC1=O", "inactive"],
  ["COCCNC(=O)c1cc(-c2cccs2)on1", "inactive"],
  ["Cc1ccc(Nc2ncnc3c2oc2ccccc23)cc1", "inactive"],
  ["COC(=O)CSc1nc2ccc(C)cc2cc1C#N", "inactive"],
  ["CCOC(=O)CC(=O)CSc1nc2ccc(C)cc2cc1C#N", "inactive"]
]}
